B1: CPEB3 Ribozyme (parent)
chain: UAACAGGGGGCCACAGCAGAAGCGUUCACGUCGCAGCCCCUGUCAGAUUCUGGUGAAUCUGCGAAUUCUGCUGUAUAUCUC

variants of: B1; test: self-cleavage, relative activity (ratio to wild type); higher = more cleavage; in vitro, sequencing
Assign self-cleavage to each entry below.
Enter the number alone.

Return reported self-cleavage. Input variant: A5U G52U
1.15

# return recorded self-cleavage for input A5C G8A
0.46

Answer with reported self-cleavage of G30U G70C
0.15

Give the value of self-cleavage reported for the following: U43G U67C
0.11

For the variant U69C U76G , give its reported self-cleavage.
0.79

Note down self-cleavage recorded for A13C U43C
0.62

Quote self-cleavage reported for G55U U60C please.
0.27

State its self-cleavage: U54G U67C
0.32

Look up and state reported self-cleavage for U69G C71A
0.09

Quick one: give measured self-cleavage for C68A U69G
0.42

Determine from records and report self-cleavage for U26G U69C
0.37

Using known records, supply self-cleavage for U26A U54A
0.82

Please give measured self-cleavage of the following entry: A2U U80G
1.06

Look up and state reported self-cleavage for A2G C11G
0.15

Give self-cleavage for G24A A57G
0.15

Please list self-cleavage recorded for the variant A18C U48C
0.25

Quickly give me recorded self-cleavage for C17G C79U
0.27

Report measured self-cleavage; entry is A45U U78G
0.65

Provide only the value of recorded self-cleavage for G33A C62A
0.37

Specify self-cleavage for G8C U69C and stop.
0.22

Could you please provide reported self-cleavage for U43A A57C ? Thanks!
0.47

Input C44U U72C , output reported self-cleavage.
0.19

Give self-cleavage for the following variant: G63U U67A
0.58

Quick one: give measured self-cleavage for C17U C37A
0.09

Look up and report measured self-cleavage for this entry: G30A A47U
0.18

Return reported self-cleavage. Input variant: A15G C50U
0.33

Input G9C A15U , output reported self-cleavage.
0.1

Note self-cleavage for the variant shown: U1C A21G
0.24

Identify measured self-cleavage associated with U31C G70C
0.18

Tell me self-cleavage reported for A35U U74C
0.86

Specify reported self-cleavage for the variant shown: C34U U72G
0.33

State its self-cleavage for this variant: U49C U51G
0.36

Output self-cleavage of C37U U78G
1

Look up self-cleavage of U60A A65G and report it.
0.34

Give self-cleavage for A13C A75U
0.99

Quote self-cleavage reported for C11U U72A please.
0.42

Using known records, supply self-cleavage for G6A G33U
0.22

Provide self-cleavage value for the following variant: C11U U54A
0.45

Return reported self-cleavage. Input variant: G19A U66A
0.13

Output self-cleavage of A57G G61U
0.64

Supply reported self-cleavage belonging to this variant: A3U U26C
0.64

Please look at this variant and report its self-cleavage: U25C U80C
0.35

For the variant A13G G36U , give its measured self-cleavage value.
0.2

Tell us which self-cleavage value is on record for G42C U60C
0.24

Return self-cleavage (reported value) for this variant: C32U U43A
0.43

Give the reported self-cleavage for this variant. A20U U51C
0.32
